src = patent US20220402995A1

study-system: T1, VLP2 (virus-like particles of AAV2) (AAV2, UniProt P03135 1-735; P03135 1-598; P03135 1-533)
T1 construct: Empty AAV2 capsid; background says about 60 protein molecules, VP1:VP2:VP3 = 1:1:10; Immobilised on the ELISA plate
T1 sequence (P03135 whole entry, chain 1 of 3): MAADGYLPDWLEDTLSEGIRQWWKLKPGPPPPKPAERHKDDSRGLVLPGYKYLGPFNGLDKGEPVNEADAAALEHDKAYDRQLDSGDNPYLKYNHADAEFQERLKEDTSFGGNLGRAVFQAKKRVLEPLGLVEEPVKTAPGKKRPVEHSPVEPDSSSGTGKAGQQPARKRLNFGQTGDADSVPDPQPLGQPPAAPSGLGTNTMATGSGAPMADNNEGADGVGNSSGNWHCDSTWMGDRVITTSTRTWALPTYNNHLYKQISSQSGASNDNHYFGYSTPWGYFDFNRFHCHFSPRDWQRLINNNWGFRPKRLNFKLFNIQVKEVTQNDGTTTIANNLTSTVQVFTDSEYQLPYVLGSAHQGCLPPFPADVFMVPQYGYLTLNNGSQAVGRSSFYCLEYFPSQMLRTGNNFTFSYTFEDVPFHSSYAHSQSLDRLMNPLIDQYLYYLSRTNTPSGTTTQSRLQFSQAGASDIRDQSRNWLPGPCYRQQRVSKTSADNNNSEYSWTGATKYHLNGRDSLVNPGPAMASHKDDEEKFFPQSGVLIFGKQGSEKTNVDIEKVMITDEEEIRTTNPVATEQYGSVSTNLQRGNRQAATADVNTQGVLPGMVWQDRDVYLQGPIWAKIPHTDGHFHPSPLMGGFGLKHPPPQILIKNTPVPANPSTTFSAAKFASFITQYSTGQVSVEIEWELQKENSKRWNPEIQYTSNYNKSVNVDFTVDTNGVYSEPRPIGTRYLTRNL
T1 sequence (P03135 139-735, tags left off, chain 2 of 3): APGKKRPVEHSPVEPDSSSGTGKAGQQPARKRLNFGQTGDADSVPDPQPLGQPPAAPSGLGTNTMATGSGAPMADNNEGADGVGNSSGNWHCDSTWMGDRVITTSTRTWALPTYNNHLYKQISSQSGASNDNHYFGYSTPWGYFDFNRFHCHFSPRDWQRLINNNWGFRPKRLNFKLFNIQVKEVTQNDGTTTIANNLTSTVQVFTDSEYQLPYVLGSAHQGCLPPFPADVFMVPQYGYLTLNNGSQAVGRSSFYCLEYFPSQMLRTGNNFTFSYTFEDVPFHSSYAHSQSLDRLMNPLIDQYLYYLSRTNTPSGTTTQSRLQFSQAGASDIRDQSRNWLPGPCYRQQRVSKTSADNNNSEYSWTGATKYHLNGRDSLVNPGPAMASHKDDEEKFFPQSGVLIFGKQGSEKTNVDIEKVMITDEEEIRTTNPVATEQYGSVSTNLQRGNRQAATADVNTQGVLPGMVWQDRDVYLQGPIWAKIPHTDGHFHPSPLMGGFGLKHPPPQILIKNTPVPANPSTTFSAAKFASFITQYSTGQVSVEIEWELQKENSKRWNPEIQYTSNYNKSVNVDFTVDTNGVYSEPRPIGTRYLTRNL
T1 sequence (P03135 203-735, chain 3 of 3): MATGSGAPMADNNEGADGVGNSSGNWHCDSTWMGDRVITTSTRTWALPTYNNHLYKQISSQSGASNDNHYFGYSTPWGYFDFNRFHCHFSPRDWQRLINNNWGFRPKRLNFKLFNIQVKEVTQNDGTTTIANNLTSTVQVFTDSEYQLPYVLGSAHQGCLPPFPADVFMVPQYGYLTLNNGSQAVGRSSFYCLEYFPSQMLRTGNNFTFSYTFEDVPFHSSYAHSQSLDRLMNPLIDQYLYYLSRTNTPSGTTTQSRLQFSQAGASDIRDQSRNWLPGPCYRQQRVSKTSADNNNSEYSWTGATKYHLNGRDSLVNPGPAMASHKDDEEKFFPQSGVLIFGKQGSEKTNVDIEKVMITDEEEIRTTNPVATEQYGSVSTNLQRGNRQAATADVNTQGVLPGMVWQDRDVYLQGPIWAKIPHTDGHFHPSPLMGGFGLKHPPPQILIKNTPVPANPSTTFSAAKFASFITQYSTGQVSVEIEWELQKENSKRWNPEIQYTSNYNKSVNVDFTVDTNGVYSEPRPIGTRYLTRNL
assay-overview: ELISA on VLP2; A450 after pH 3.0 60.1°C 15 min / 25°C
metric: Residual activity after heat treatment [%] (%)
Answer with a number only, understood to be in %.

Problem: Param item = AVR5b (Ile319Phe, Lys323Glu, Tyr342Cys, Gly390Ser, Ser476Arg) (receptor) MGSAGESVQFTLPENEVQLNAYVLQEPPKGETCTYDWQLITHPRDYSGEMEGKHSQILKLSKLTPGLYEFKVIVEGQNAHSEGYVNVTVKPEPRKNRPPIAIVSPQFQEISLPTTSTVIDGSQSTDDDKIVQYHWEELKGPLREEKISEDTAILKLSKLVPGNYTFRLTVVDSDGATNSTTANLTVNKAVDHHHHHH ; retrieve measured Residual activity after heat treatment [%].
Solution: 43
